TEST TARGET: APOL1 G1 (Homo sapiens, UniProt O14791, I384M/S342G)
Sequence (O14791 28-398 S342G/I384M): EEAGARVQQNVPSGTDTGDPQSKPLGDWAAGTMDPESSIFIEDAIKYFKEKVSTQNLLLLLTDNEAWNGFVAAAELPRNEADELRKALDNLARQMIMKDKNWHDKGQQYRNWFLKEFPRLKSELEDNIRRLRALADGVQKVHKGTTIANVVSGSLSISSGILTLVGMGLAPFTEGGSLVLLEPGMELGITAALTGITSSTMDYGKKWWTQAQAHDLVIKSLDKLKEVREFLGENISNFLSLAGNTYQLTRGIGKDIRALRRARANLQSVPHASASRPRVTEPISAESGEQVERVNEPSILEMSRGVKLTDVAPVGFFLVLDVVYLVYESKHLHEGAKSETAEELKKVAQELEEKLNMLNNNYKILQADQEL
MEASUREMENT NOTES: MultiTox-Fluor Multiplex Cytotoxicity Assay, tet-inducible APOL1 G1 T-REx-HEK293 cells
Format: cell-based
Set-up: expressed in transfected cells; host or cells: T-REx HEK293, clone G1 DC3.25 (pAAVS1-Puro-APOL1 G1)
CONDITIONS USED: Multi-Tox Assay; APOL1 variant not given
ASSAY READOUT: Multi-Tox Assay Max Activity (%)

| COMPOUND | TEST TARGET | RECORDED RESULT |
| --- | --- | --- |
| Cc1cc(C2CC3(CC(C)N2)OCCc2cc(Cl)sc23)ncn1 (stereo not shown) [Compound 43] | APOL1 G1 (Homo sapiens, UniProt O14791, I384M/S342G) | 100.0% |
| C[C@H]1C[C@@]2(C[C@@H](c3cn(CC(N)=O)nn3)N1)OCCc1cc(Cl)sc12 (racemic) [Compound 133] | APOL1 G1 (Homo sapiens, UniProt O14791, I384M/S342G) | 99.7% |
| C[C@H]1C[C@@]2(C[C@@H](c3cn(Cc4ccc(O)nc4)nn3)N1)OC[C@@H](O)c1cc(Cl)sc12 [Compound 275] | APOL1 G1 (Homo sapiens, UniProt O14791, I384M/S342G) | 94.0% |
| CC1CC2(CC(c3cn(CC4CC4)nn3)N1)OCCc1cc(Cl)sc12 (stereo not shown) [Compound 122] | APOL1 G1 (Homo sapiens, UniProt O14791, I384M/S342G) | 99.7% |
